Data origin, for the record: the nanobody polyreactivity screen of Harvey et al. (2022)

# ASSAY NOTES: yeast display, Sf9 membrane polyspecificity reagent, FACS + sequencing; frameworks hold sequencing errors
ASSAY METRIC: polyreactivity (PSR sort gate)

SEQUENCE DATA	polyreactivity (PSR sort gate)
QVQLVESGGGLVQAGGSLRLSCAASGRIFYYYAMAWYRQAPGKERELVAAITRRGGSTYYADSVKGRFTISRDIAKNTVYFQMNSLKPEDTAVYYCAKPDRTGWLDGDYWGQGTQVTVSS	low polyreactivity
QVQLVESGGGLVQAGGSLRLSCDASGFIFDEYAMGWYRPAPGEERELVAAINWRGGSTYYADSVKGRFTISRDNAKNTVYLQMNSLKPEDTAVYYCAARNVYVWYDYWGQGTQVTVSS	low polyreactivity
QVQLVESGGGLVQAGVSLRLSCAASGFILGYNAMGWYRQAPAKERELVAAITRGGSTYYADSVKGRFTISRDNSKNTVYLQMNSLKPEDTAVYYCAAAYRGYSSTLWLGHWGQGTQVTVSS	high polyreactivity
QVQLVESGGGLVQAGGSLRLSCAASGRIFRNYAMGWYRQAPGKERELVAAISSGGGSTYYADSVKGRFTISRDNAKNTVYLQMNSLKPEDTAVYYCNARYVYYGKFREYDYWGQGTQVTVSS	high polyreactivity

Task: Data request, read-out polyreactivity (PSR sort gate), for QVQLVESGGGLVQAGGSLRLSCAASGFTFYPNAMGWYRQAPGNERELVATITGSGGSTNYADSVKGRFTISRDTAKNTVYLHMNRLKPEDTAVYYCAADYAVYSFTEFNYWGQVTQVTVSS
Result: high polyreactivity
